- Method Summary: changes in parasitized red cell lysis, either direction – P. falciparum Indochina, OD700, 3 h, PSAC antagonist project, primary screen (AID 1156)
- Condition Info: P. falciparum-infected erythrocytes, osmotic lysis, higher = more signal, called active from +8 up or from −8 down
Calls of active or inactive are those of the source.
Value Kind: z-score

Asked: Please look up its z-score: `COC(=O)c1c2oc(c1C(=O)OC)C(=O)N[C@H](Cc1ccccc1)Cn1nncc1C1(CCCCC1)NC(=O)N[C@H](CO)CC2`
Given back: 0.52 (inactive)

Asked: Quick one: z-score of O=C1C2C=CC(C(O)c3ccc(Br)cc3)N(n3cnnc3)C2C(=O)N1Cc1ccccc1 (centres undefined) ?
Given back: 0.107 (inactive)

Asked: Given the entry CN1C(=O)C2C=CC(C(O)C=Cc3ccc([N+](=O)[O-])cc3)N(N3CCCCC3)C2C1=O (centres undefined) , report its measured z-score.
Given back: 0.714 (inactive)

Asked: z-score lookup needed for `C=CCN1C(=O)[C@@]2(O[C@@H](CCO)[C@H]([Si](C)(C)c3ccc(OC)cc3)[C@H]2C)c2cc(N3C(=O)COc4ccccc43)ccc21` , thanks.
Given back: -0.122 (inactive)
